Reported inhibition values are given for each entry in this list.
# assay.target: Glucose transporter (Leishmania mexicana) (UniProt O61059)
# assay.name: ST_JUDE_LEISH: Cytotoxicity at 2uM final concentration against transgenic Leishmania Mexicana promastigotes LmGT2 that are glucose transport deficient and complemented with the L. Mexicana glucose transporter 2. Activity is measured by DNA content using SYBR green in vitro
# Assay type: functional

Example entries begin here.
Asked: Item: O=C(Nc1ccc(N2CCNCC2)cc1)c1ccn2ncc(-c3cccc(Cl)c3)c2n1 Test system: Glucose transporter (Leishmania mexicana) (UniProt O61059) Read-out: inhibition Value: ?
Given back: 54.3%

Asked: Item: Oc1ccc(CN2CCC(NCc3cccc(C(F)(F)F)c3)CC2)cc1 Test system: Glucose transporter (Leishmania mexicana) (UniProt O61059) Read-out: inhibition Value: ?
Given back: 13.7%

Asked: Item: CN(C)CCCOc1cccc(NC(=O)Nc2ccc(-c3ccccc3)cc2)c1 Test system: Glucose transporter (Leishmania mexicana) (UniProt O61059) Read-out: inhibition Value: ?
Given back: -3.41%

Asked: Item: CCCN(CCC)CCCNc1ccc(C(=O)Nc2ccc(C(C)C)cc2)cc1[N+](=O)[O-] Test system: Glucose transporter (Leishmania mexicana) (UniProt O61059) Read-out: inhibition Value: ?
Given back: 13.2%

Asked: Item: Cc1ccc(Nc2nc(C)cc(NCc3ccc(-n4ccnc4)cc3)n2)cc1 Test system: Glucose transporter (Leishmania mexicana) (UniProt O61059) Read-out: inhibition Value: ?
Given back: 10.4%

Asked: Item: Cc1cc(O)nc(NC(=N)NOCc2ccccc2)n1 Test system: Glucose transporter (Leishmania mexicana) (UniProt O61059) Read-out: inhibition Value: ?
Given back: 1.07%

Asked: Item: CCCc1cc(OC)c(C[C@@H]2c3cc(O)c(Cl)cc3CCN2C)cc1OC Test system: Glucose transporter (Leishmania mexicana) (UniProt O61059) Read-out: inhibition Value: ?
Given back: 3%

Asked: Item: N#Cc1ccc(N[C@@H](CC2CCCCC2)C(=O)NCc2cc(F)c(F)cc2F)c2ccccc12 Test system: Glucose transporter (Leishmania mexicana) (UniProt O61059) Read-out: inhibition Value: ?
Given back: 12%

Asked: Item: CCCNCc1ccc(-c2ccc(CN(CC3CCCO3)C(=O)COc3ccccc3Cl)cc2)nc1 (centres undefined) Test system: Glucose transporter (Leishmania mexicana) (UniProt O61059) Read-out: inhibition Value: ?
Given back: 2.71%

Asked: Item: CCCCCCn1c2c(c(=N)c3c1CCC3)CCC2 Test system: Glucose transporter (Leishmania mexicana) (UniProt O61059) Read-out: inhibition Value: ?
Given back: 83.1%

Further cases:
Asked: Item: CCOC(=O)c1ccc(NC(=O)Nc2ccc(-c3ccc(-c4nc5ccccc5[nH]4)cc3)cc2)cc1 Test system: Glucose transporter (Leishmania mexicana) (UniProt O61059) Read-out: inhibition Value: ?
Given back: 3.8%

Asked: Item: Cc1ccc(-c2ccn(Cc3ccc(OCc4ccccc4)cc3)n2)cn1.Cc1ccc(-c2ccnn2Cc2ccc(OCc3ccccc3)cc2)cn1 Test system: Glucose transporter (Leishmania mexicana) (UniProt O61059) Read-out: inhibition Value: ?
Given back: 0.25%

Asked: Item: COc1cc2c(cc1OCCN1CCC(N)CC1)N(C(=O)/C=C/c1ccccc1Cl)CC2 Test system: Glucose transporter (Leishmania mexicana) (UniProt O61059) Read-out: inhibition Value: ?
Given back: 12.8%

Asked: Item: N=C(N)NCCCN(Cc1ccccc1)c1ccc(Cl)cc1 Test system: Glucose transporter (Leishmania mexicana) (UniProt O61059) Read-out: inhibition Value: ?
Given back: 4.83%

Asked: Item: NC(=O)C1Cc2ccccc2CN1CC(=O)Nc1ccccc1Sc1ccccc1 (centres undefined) Test system: Glucose transporter (Leishmania mexicana) (UniProt O61059) Read-out: inhibition Value: ?
Given back: 2.18%

Asked: Item: N#Cc1ccc2c(c1)CN(C1CCC(NC(=O)/C=C/c3cc(C(F)(F)F)cc(C(F)(F)F)c3)CC1)CCC2 (centres undefined) Test system: Glucose transporter (Leishmania mexicana) (UniProt O61059) Read-out: inhibition Value: ?
Given back: 0.57%

Asked: Item: CC(CN1CCN(C)CC1)C(=O)Nc1ccc(-c2cccc(-c3nc4ccccc4[nH]3)c2)cc1 (centres undefined) Test system: Glucose transporter (Leishmania mexicana) (UniProt O61059) Read-out: inhibition Value: ?
Given back: -0.2%

Asked: Item: CN(C)CCCn1cncc1-c1ccc2ncnc(Nc3ccc4c(cnn4Cc4ccccc4)c3)c2c1 Test system: Glucose transporter (Leishmania mexicana) (UniProt O61059) Read-out: inhibition Value: ?
Given back: 1.35%
